Let's look at some compounds and their measured collision cross section.
experiment: collision cross section (TIMS, N2 drift gas) of the primary ion; higher = larger gas-phase ion size; settings: ionization mode: ESI+; ion species: [M+H]+
Please state the figure in Å²; there is no need to write the unit.

Answered cases to consult:
IN: For the compound shown here, "CCC(CC)Nc1c([N+](=O)[O-])cc(C)c(C)c1[N+](=O)[O-]" , give the reported collision cross section.
OUT: 160.71

IN: Input Cc1nn(C)c(Oc2ccccc2)c1/C=N/OCc1ccc(C(=O)OC(C)(C)C)cc1 [Fenpyroximate]
OUT: 203.95

IN: Item: "CS(=O)(=O)c1ccc(C(=O)C2C(=O)CCCC2=O)c(Cl)c1"
OUT: 175.92

Continuing:
IN: Bench note: what collision cross section did CC1(C)CC(OC(=O)CCCCCCCCC(=O)OC2CC(C)(C)NC(C)(C)C2)CC(C)(C)N1 [Bis(2,2,6,6-tetramethyl-4-piperidyl)sebacate] show?
OUT: 225.08

IN: What about "CCc1cccc(C)c1NC(=O)CS(=O)(=O)O" ?
OUT: 157.12

IN: What do you get for "COc1cnc(OC)n2nc(NS(=O)(=O)c3c(OCC(F)F)cccc3C(F)(F)F)nc12" ?
OUT: 196.63

----------
experiment: collision cross section (TIMS, N2 drift gas) of the primary ion; higher = larger gas-phase ion size; settings: ionization mode: ESI+; ion species: [M+H]+
endpoint: collision cross section (Å²)
// units = Å²; emit number, no label

IN: What measured collision cross section goes with CCC1(c2ccccc2)C(=O)NCNC1=O [Primidone] ?
OUT: 148.13

IN: And for Cc1cccc(C)c1N(Cn1cccn1)C(=O)CS(=O)(=O)O [Metazachlor ESA] ?
OUT: 168.61

IN: Moving on to CCS(=O)CCSP(=O)(OC)OC (configuration not stated) [Demeton-S-methyl sulfoxide]
OUT: 142.73

IN: Record: O=C(Nc1ccccc1)N(Cc1ccc(Cl)cc1)C1CCCC1 [Pencycuron]
OUT: 181.17

IN: Same question, O=C(OC1CCCCC1)c1ccccc1C(=O)OC1CCCCC1 [Dicyclohexylphthalate] this time
OUT: 187.61

---
IN: Any idea what collision cross section was measured for O=C(Nc1ccccc1-c1ccc(Cl)cc1)c1cccnc1Cl [Boscalid] ?
OUT: 177.19

IN: How about this compound: CC(=O)Nc1ccc(O)cc1 [Acetaminophen]
OUT: 130.01

----------
A collection of compounds and their measured reversed-phase LC retention time
test: reversed-phase LC retention time (C18, 15 min MeOH gradient); higher = more hydrophobic / later elution; details: ionization mode: ESI+; ion species: [M+H]+
Dear colleague, please return just the value in min, with no unit written.

Past entries and their recorded results:
IN: For "N#CCNC(=O)c1cnccc1C(F)(F)F" , what is its reported reversed-phase LC retention time?
OUT: 7.31

IN: Please give the result for CC(Cc1ccc(C(C)(C)C)cc1)CN1C[C@@H](C)O[C@@H](C)C1 (stereo partly drawn) too.
OUT: 13.8

Next:
IN: Suppose we examine the compound "O=C1Cc2cc(CCN3CCN(c4nsc5ccccc45)CC3)c(Cl)cc2N1" ; what reversed-phase LC retention time value has been reported?
OUT: 11.2

----------
assay: collision cross section (TIMS, N2 drift gas) of the primary ion; higher = larger gas-phase ion size; conditions: ionization mode: ESI-; ion species: [M-H]-
Measured collision cross section, listed per entry.
Note: unit Å² is implicit; provide only the numeric part.

Completed entries (count: 3):
IN: Any idea what its collision cross section is? The compound is "O=Cc1c[nH]c2ccccc12"
OUT: 122.39

IN: Repeat for the following compound: CCc1cccc(C)c1N(C(=O)C(=O)O)C(C)C(=O)O (stereo not drawn)
OUT: 159.41

IN: Field entry: OCC1OC(OC2(CCl)OC(CCl)C(O)C2O)C(O)C(O)C1Cl (stereo not drawn)
OUT: 174.98

More entries:
IN: Record request: collision cross section value, item "O=c1cc(-c2ccccc2)oc2cc(O)cc(O)c12"
OUT: 156.4

IN: Record: O=C1Nc2ccc(Cl)cc2C(c2ccccc2Cl)=NC1O (stereo not drawn)
OUT: 167.96

IN: Continue with "Nc1nc2c(ncn2COCCO)c(=O)[nH]1"
OUT: 146.78

IN: Follow-up entry: CCCC1CC(C(=O)NC(C(C)Cl)C2OC(SC)C(O)C(O)C2O)N(C)C1 (stereo not drawn)
OUT: 200.27

IN: Now the same for "O=c1[nH]sc2ccccc12"
OUT: 122.13

IN: Next: "O=C(NCCc1ncc(C(F)(F)F)cc1Cl)c1ccccc1C(F)(F)F"
OUT: 179.2

IN: Quick one: "C[C@]12CC[C@@H]3c4ccc(O)cc4CC[C@H]3[C@@H]1C[C@@H](O)[C@@H]2O"
OUT: 176.65

IN: Also "O=c1c(-c2ccc(O)cc2)coc2cc(O)cc(O)c12" ?
OUT: 159.59

IN: And the next one, CC(=O)C1(O)CCC2C3CCC4=CC(=O)CCC4(C)C3CCC21C (stereo not drawn) [17alpha-Hydroxyprogesterone] ?
OUT: 185.03

IN: Another compound to check: "Oc1ccc(C2(c3ccc(O)cc3)c3ccccc3-c3ccccc32)cc1"
OUT: 194.22

IN: Next record, please: "O=S(=O)(O)c1ccccc1"
OUT: 125.05

IN: For "CCCCc1ncc(C(=O)O)n1Cc1ccc(C(=O)O)cc1" then?
OUT: 178.16

IN: Further, for "CCCc1cc(=O)[nH]c(=S)[nH]1" ?
OUT: 133.88
